Target Or System: T1, human vascular endothelial growth factor receptor-2 Fc chimera (KDR-Fc) (human, UniProt P35968 20-764)
T1 construct: range 1-764; Purchased from R&D Systems; also called hKDR; human VEGF-R2-Fc; not shown: human IgG1 Fc
T1 sequence (P35968 20-764 limits assumed, change not shown, form in doubt): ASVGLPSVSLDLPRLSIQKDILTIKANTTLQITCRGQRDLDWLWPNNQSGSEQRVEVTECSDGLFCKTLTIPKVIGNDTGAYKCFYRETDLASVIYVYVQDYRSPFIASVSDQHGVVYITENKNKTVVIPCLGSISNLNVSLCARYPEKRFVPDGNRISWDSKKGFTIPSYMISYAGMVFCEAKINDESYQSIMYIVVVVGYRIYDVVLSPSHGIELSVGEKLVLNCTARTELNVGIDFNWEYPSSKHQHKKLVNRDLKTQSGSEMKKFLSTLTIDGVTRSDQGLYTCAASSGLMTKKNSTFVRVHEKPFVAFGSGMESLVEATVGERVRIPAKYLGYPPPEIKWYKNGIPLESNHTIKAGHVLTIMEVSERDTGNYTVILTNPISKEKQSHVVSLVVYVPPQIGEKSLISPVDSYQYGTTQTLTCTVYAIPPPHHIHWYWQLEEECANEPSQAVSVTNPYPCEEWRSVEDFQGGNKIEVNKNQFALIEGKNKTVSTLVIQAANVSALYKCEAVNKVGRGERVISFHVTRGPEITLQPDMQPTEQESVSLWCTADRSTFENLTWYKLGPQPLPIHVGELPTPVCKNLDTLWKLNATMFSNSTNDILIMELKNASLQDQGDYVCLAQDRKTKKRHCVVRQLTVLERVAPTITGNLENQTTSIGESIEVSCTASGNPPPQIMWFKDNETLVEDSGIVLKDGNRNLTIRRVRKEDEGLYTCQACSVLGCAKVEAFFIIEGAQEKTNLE
Experiment Summary: radioactive equilibrium binding, 1 nM KDR-Fc
Quantity: Binding to 1 nM KDR, % (%)

3A8 PR3 (designed binder, in vitro translated) EVVAATPTSLLISWRHPHFPTRYYRITYGETGGNSPVQEFTVPLQPPTATISGLKPGVDYTITVYAVTEAHHGHELMIPISINYRT | 12
1′DelC5 PR4 (designed binder, in vitro translated) EVVAATPTSLLISWRHPHFPTRYYRITYGETGGNSPVQEFTVPLQPPTATISGLKPGVDYTITVYAVTLAQNDHEIMTPISINYRT | 11
1′DelH7 PR4 (designed binder, in vitro translated) EVVAATPTSLLISWRHPHFPTRYYRITYGETGGNSPVQEFTVPLQPPTATISGLKPGVDYTITVYAVTVGQNDQELLTPISINYRT | 11
4′B6 PR4 (designed binder, in vitro translated) EVVAATPTSLLISWRHPHFPTRYYRITYGETGGNSPVQEFTVPLQPPTATISGLKPGVDYTITVYAVTLAQNDHELITPISINYRT | 11
1′DelG11 PR4 (designed binder, in vitro translated) EVVAATPTSLLISWRHPHFPTRYYRITYGETGGNSPVQEFTVPLQPPTATISGLKPGVDYTITVYAVTLAQNGHVLITPISINYRT | 11
